Source of measurements: ChEMBL document CHEMBL5442175

pKi: −log10 of the molar value. Structures can show the parent of a compound that is named as a salt.
Entries with reported pKi on 5-hydroxytryptamine receptor 3A (Homo sapiens, UniProt P46098)
Sequence (P46098 whole entry): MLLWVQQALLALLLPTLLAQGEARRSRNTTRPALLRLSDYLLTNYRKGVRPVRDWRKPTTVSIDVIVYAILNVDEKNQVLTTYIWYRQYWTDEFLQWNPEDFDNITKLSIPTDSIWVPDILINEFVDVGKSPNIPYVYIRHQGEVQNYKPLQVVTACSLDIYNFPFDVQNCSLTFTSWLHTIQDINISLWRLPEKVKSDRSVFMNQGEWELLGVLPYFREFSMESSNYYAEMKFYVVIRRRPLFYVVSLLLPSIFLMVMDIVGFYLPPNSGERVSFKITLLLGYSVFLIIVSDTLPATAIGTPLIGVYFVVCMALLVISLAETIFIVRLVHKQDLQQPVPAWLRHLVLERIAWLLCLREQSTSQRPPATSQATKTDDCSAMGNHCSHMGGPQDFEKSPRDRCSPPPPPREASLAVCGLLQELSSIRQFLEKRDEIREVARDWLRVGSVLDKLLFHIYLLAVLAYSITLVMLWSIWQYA
Parameter Measured: pKi

NCCc1cn(S(=O)(=O)c2c(Cl)nc3sccn23)c2ccccc12
6.18
Nc1nc2c(c(N3CCNCC3)n1)CCC1=C2[C@@H]2CCCC[C@@H]2O1
6.45
CN1C2CCC1CC(OC(c1ccc(F)cc1)c1ccc(F)cc1)C2 (configuration not stated)
5.68
CCCCN1CCC(COC(=O)c2cc(Cl)c(N)c3c2OCCO3)CC1
5.88
Cc1nn(C)c(C)c1-c1cccc2c1CC[C@H](N(C)C)C2
6.58
CN1CCC(=C2c3ccccc3CC(=O)c3sccc32)CC1 [KETOTIFEN FUMARATE]
6.47
CCCCCNC(=N)N/N=C/c1c[nH]c2ccc(OC)cc12 [TEGASEROD MALEATE]
5.23
